Tested on: MCF7
Procedure Text: Cytotoxicity against human MCF7 cells after 72 hrs by MTT assay
Assay type: functional, cell-based
Stated Conditions: MCF7, 72 h
As shown below, each of these molecules has a reported IC50 value.
Value Kind: IC50 (µM)

- CCc1c2c(nc3ccc(OC(=O)OCCOCCOCCOCCOCCOCCOCCOCCOCCOCCOCCOCCOCCOCCOCCOCCOCCOCCOCCOCCOC)cc13)-c1cc3c(c(=O)n1C2)COC(=O)[C@]3(O)CC: 3.08
- CC[C@@]1(OC(=O)OCCOCCOCCOCCOCCOCCOCCOCCOCCOCCOCCOCCOCCOCCOCCOCCOCCOCCOCCOC)C(=O)OCc2c1cc1n(c2=O)Cc2cc3ccccc3nc2-1: 7.43
- CC[C@@]1(O)C(=O)OCc2c1cc1n(c2=O)Cc2cc3ccccc3nc2-1: 0.68
- CC[C@@]1(O)C(=O)OCc2c1cc1n(c2=O)Cc2cc3cc(OC(=O)OCCOCCOCCOCCOCCOCCOCCOCCOCCOCCOCCOC)ccc3nc2-1: 4.64
- CC[C@@]1(O)C(=O)OCc2c1cc1n(c2=O)Cc2cc3cc(OC(=O)OCCOCCOCCOCCOCCOCCOCCOCCOCCOCCOCCOCCOCCOCCOCCOCCOCCOCCOCCOC)ccc3nc2-1: 6.09
- CC[C@@]1(OC(=O)OCCOCCOCCOCCOCCOCCOCCOCCOCCOCCOCCOC)C(=O)OCc2c1cc1n(c2=O)Cc2cc3ccccc3nc2-1: 8.48
- CC[C@@]1(O)C(=O)OCc2c1cc1n(c2=O)Cc2cc3cc(OC(=O)OCCOCCOCCOCCOCCOCCOCCOCCOC)ccc3nc2-1: 5.39
- CC[C@@]1(O)C(=O)OCc2c1cc1n(c2=O)Cc2cc3cc(OC(=O)OCCOCCOCCOCCOCCOCCOCCOCCOCCOCCOC)ccc3nc2-1: 5.44
- CC[C@@]1(OC(=O)OCCOCCOCCOCCOCCOCCOCCOCCOCCOCCOCCOCCOCCOCCOCCOCCOC)C(=O)OCc2c1cc1n(c2=O)Cc2cc3ccccc3nc2-1: 6.17
- CC[C@@]1(O)C(=O)OCc2c1cc1n(c2=O)Cc2cc3cc(OC(=O)OCCOCCOCCOCCOCCOCCOCCOCCOCCOCCOCCOCCOCCOCCOCCOCCOC)ccc3nc2-1: 6.16
- CCc1c2c(nc3ccc(O)cc13)-c1cc3c(c(=O)n1C2)COC(=O)[C@]3(O)CC [7-ETHYL-10-HYDROXYCAMPTOTHECIN]: 1.25
